System: Danio rerio larvae (5 dpf)
procedure text: excitability (activity period 17 minus period 16, 1-s interval sound) minus DMSO control (percentage points); higher = more acoustic excitability than DMSO larvae
condition description: 10 µM; exposure time: 3 h pre-incubation + 3 h imaging
Counter-ions that a name gives are not always drawn.
Please respond with reported excitability for every item in the list.

// worked examples, excitability included
>>> assay_value("Cc1cccc(CN2CCN(C(c3ccccc3)c3ccc(Cl)cc3)CC2)c1 (stereo not given) [Meclizine dihydrochloride]")
8.17
>>> assay_value("CN1CC(=O)N2[C@H](c3ccc4c(c3)OCO4)c3[nH]c4ccccc4c3C[C@@H]2C1=O")
5.81
>>> assay_value("CCCN(CCC)S(=O)(=O)c1ccc(C(=O)O)cc1")
5.41
>>> assay_value("CN/C(=N\\CCSCc1nc[nH]c1C)NC#N")
-2.33

// NC(=O)N1c2ccccc2C=Cc2ccccc21 [Carbamazepine] : excitability value = 1.07
